assay: Mouse hepatocyte metabolic stability; format: in vitro ADME; details: mouse hepatocytes; limits of quantitation 0.5 and 50
// reported Cl (clearance) per item
readout: Cl (clearance)

| compound | value observed |
| --- | --- |
| CC(C)CN(C(=O)c1c(F)cccc1F)c1cccc(N(C)Cc2c[nH]cn2)c1 | 8.6 mL/min/g liver |
| O=C(C(c1ccccc1)n1cnc2[nH]ncc2c1=S)N1CCCCCC1 (stereo not shown) [AG18051, reference compound] | >50 mL/min/g liver |
| Cc1ccc(C(=O)N(CC(C)C)c2cccc(N(C)Cc3c[nH]cn3)c2)c(F)c1 | 5.8 mL/min/g liver |
| Cc1ccsc1C(=O)N(CC(C)C)c1cccc(N(C)Cc2c[nH]cn2)c1 | 7.2 mL/min/g liver |

----------
Catalogue of IC50 values
biological target: 17β-HSD10 (Homo sapiens, UniProt Q99714); construct: Recombinant 17β-HSD10 was expressed and purified as previously described in Aitken et al; made in house; assay: 17β-HSD10 enzyme inhibition dose-response assay (acetoacetyl-CoA/NADH, absorbance 340 nm); format: biochemical; conditions: Table 3, chemically modified singleton hit compound series; read-out: 17β-HSD10 pIC50 (converted)
Sequence (Q99714 whole entry): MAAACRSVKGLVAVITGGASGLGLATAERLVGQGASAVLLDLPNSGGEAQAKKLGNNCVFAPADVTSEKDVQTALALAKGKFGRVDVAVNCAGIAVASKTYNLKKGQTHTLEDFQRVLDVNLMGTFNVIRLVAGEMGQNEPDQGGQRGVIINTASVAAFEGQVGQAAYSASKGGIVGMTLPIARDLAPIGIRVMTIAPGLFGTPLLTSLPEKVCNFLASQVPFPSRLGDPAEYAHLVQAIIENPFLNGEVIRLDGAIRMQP

| molecule | IC50 (nM) |
| --- | --- |
| O=C(c1sccc1Cl)N1CCCC1c1ccccc1-c1ccc(F)c(O)c1 (stereo not shown) [ESC1002775] | 49 |
| O=C(c1sccc1Cl)N1CCCC1c1ccccc1-c1ccc(F)c(O)c1 (stereo not shown) [ESC1002838] | 51.3 |
| Cc1ccsc1C(=O)N1CCC[C@H]1c1ccccc1-c1cccnc1 [ESC1002090] | 1150 |
| O=C(c1sccc1Cl)N1CCC[C@H]1c1ccccc1-c1cccc(O)c1 [ESC1002666] | 58.9 |

----------
molecular target: 17β-HSD10 (Homo sapiens); construct: Recombinant 17β-HSD10 was expressed and purified as previously described in Aitken et al; made in house; test: (−)-CHANA fluorescence assay of cellular 17β-HSD10 activity; type: cell-based; settings: Table 5, HEK293 17β-HSD10 cells, CHANA assay; read-out: cellular 17β-HSD10 activity mean pEC50 (converted)
Let's look at some compounds and their measured EC50.
readout: EC50 (nM)

| compound | target under test | readout | value observed |
| --- | --- | --- | --- |
| Cc1ccsc1C(=O)N(CC(C)C)c1cccc(N(C)Cc2c[nH]cn2)c1 | 17β-HSD10 (Homo sapiens) | EC50 | 511 |
| O=C(c1sccc1Cl)N1CCCC1c1ccccc1-c1cccc(O)c1 (stereo not drawn) | 17β-HSD10 (Homo sapiens) | EC50 | 28 |
| O=C(c1sccc1Cl)N1CCC[C@H]1c1ccccc1-c1cc(O)ccc1F | 17β-HSD10 (Homo sapiens) | EC50 | 40 |

----------
Each entry below carries its recorded half-life.
test: Mouse hepatocyte metabolic stability; type: in vitro ADME; conditions: mouse hepatocytes; read-out: T1/2 (half-life)

| compound | half-life (min) |
| --- | --- |
| Cc1ccc(C(=O)N(CC(C)C)c2cccc(N(C)Cc3c[nH]cn3)c2)c(F)c1 [ESC1002575] | 57.2 |
| CC(C)CN(C(=O)c1ccccc1F)c1cccc(N(C)Cc2cnc[nH]2)c1 [ESC1002033] | 53.8 |
| CC(C)CN(C(=O)c1c(F)cccc1F)c1cccc(N(C)Cc2c[nH]cn2)c1 [ESC1002456] | 38.5 |
| COc1cccc(-c2ccccc2C2CCCN2C(=O)c2[nH]ncc2Cl)c1 (stereo not shown) [ESC1002757] | 5.3 |
| Cc1nc[nH]c1CN(C)c1cccc(N(CC(C)C)C(=O)c2ccccc2F)c1 [ESC1002204] | 6.2 |
| O=C(c1sccc1Cl)N1CCC[C@H]1c1ccccc1-c1cc(O)ccc1F [ESC1002842] | 4 |
| O=C(c1sccc1Cl)N1CCCC1c1ccccc1-c1cccc(O)c1 (stereo not shown) [ESC1002755] | 3.1 |

Source listed as paper PMC12281485.
